Assignment: determine reported RLU for the given molecules.
- SYSTEM: human TAS2R14 (Homo sapiens, UniProt Q9NYV8)
- Construct: expressed in transfected cells; host or cells: HEK293T-Gα16gust44
- Sequence (Q9NYV8 whole entry): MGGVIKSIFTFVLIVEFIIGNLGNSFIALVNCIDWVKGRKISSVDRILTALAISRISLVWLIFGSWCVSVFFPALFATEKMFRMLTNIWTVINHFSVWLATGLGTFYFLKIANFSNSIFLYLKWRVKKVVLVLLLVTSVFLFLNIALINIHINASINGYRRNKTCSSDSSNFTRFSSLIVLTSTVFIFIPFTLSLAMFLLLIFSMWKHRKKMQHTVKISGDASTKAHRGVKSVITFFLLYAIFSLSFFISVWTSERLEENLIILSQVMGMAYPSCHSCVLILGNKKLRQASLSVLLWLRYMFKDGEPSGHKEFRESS
- EXPERIMENT_DESCRIPTION: Calcium imaging assay (FLIPR), HEK293T-Gα16gust44 cells transfected with human TAS2R14
- Format: cell-based
- CONDITION: TAS2R14 trace; Time (s) 62.797 (Chenodeoxycholic Acid 62.781)
Value expressed in RLU; do not type the unit.

Missing value: RLU, human TAS2R14 (Homo sapiens, UniProt Q9NYV8), entry C[C@H](CCC(=O)NCC(=O)O)[C@H]1CC[C@H]2[C@@H]3[C@H](O)C[C@@H]4C[C@H](O)CC[C@]4(C)[C@H]3C[C@H](O)[C@]12C . Fill in?
520.328

# value lookup — system human TAS2R14 (Homo sapiens, UniProt Q9NYV8), readout RLU, item C[C@H](CCC(=O)O)[C@H]1CC[C@H]2[C@@H]3[C@H](O)C[C@@H]4C[C@H](O)CC[C@]4(C)[C@H]3C[C@H](O)[C@]12C
740.761

Recorded RLU for C[C@H](CCC(=O)NCCS(=O)(=O)O)[C@H]1CC[C@H]2[C@@H]3CC[C@@H]4C[C@H](O)CC[C@]4(C)[C@H]3CC[C@]12C with human TAS2R14 (Homo sapiens, UniProt Q9NYV8), please?
213.291

Form field: RLU recorded for C[C@H](CCC(=O)NCCS(=O)(=O)O)[C@H]1CC[C@H]2[C@@H]3[C@H](O)C[C@@H]4C[C@H](O)CC[C@]4(C)[C@H]3C[C@H](O)[C@]12C with human TAS2R14 (Homo sapiens, UniProt Q9NYV8) (enter value)
543.404

Lab request: please report RLU under test system human TAS2R14 (Homo sapiens, UniProt Q9NYV8) for C[C@H](CCC(=O)O)[C@H]1CC[C@H]2[C@@H]3[C@H](O)C[C@@H]4C[C@H](O)CC[C@]4(C)[C@H]3CC[C@]12C
553.072

---

- SYSTEM: human TAS2R4 (Homo sapiens, UniProt Q9NYW5)
- Construct: expressed in transfected cells; host or cells: HEK293T-Gα16gust44
- Sequence (Q9NYW5 whole entry): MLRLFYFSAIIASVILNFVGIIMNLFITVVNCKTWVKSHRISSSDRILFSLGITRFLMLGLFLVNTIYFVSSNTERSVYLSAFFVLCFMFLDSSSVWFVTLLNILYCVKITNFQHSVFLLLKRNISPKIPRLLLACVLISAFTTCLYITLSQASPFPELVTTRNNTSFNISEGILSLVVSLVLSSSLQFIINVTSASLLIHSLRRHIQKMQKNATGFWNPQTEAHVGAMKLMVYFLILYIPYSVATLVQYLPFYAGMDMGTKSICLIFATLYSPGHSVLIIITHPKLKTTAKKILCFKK
- EXPERIMENT_DESCRIPTION: Calcium imaging assay (FLIPR), HEK293T-Gα16gust44 cells transfected with human TAS2R4; note: test concentration or dose not given here
- Format: cell-based
- CONDITION: Time (s) 68.781 (TCA, TLCA: 68.782)
One threshold, 600 RLU, splits the recorded RLU, fluorescence trace values: lower ones are True, equal or higher ones are False.

# TODO verify RLU, fluorescence trace < 600 RLU strictly for this compound: C[C@H](CCC(=O)O)[C@H]1CC[C@H]2[C@@H]3CC[C@@H]4C[C@H](O)CC[C@]4(C)[C@H]3C[C@H](O)[C@]12C [Deoxycholic Acid, deoxycholic acid]
True

Hello, I'm reviewing records and need to know if RLU, fluorescence trace of C[C@H](CCC(=O)NCCS(=O)(=O)O)[C@H]1CC[C@H]2[C@@H]3[C@H](O)C[C@@H]4C[C@H](O)CC[C@]4(C)[C@H]3C[C@H](O)[C@]12C [Taurocholic Acid, taurocholic acid] is below 600 RLU. Could you check?
False

In plain terms, does C[C@H](CCC(=O)O)[C@H]1CC[C@H]2[C@@H]3[C@H](O)C[C@@H]4C[C@H](O)CC[C@]4(C)[C@H]3C[C@H](O)[C@]12C [Cholic Acid, cholic acid] come in under 600 RLU for RLU, fluorescence trace?
False

Would you kindly verify if RLU, fluorescence trace of C[C@H](CCC(=O)NCCS(=O)(=O)O)[C@H]1CC[C@H]2[C@@H]3CC[C@@H]4C[C@H](O)CC[C@]4(C)[C@H]3CC[C@]12C [Taurolithocholic Acid, taurolithocholic acid] is strictly less than 600 RLU?
True

Threshold test, RLU, fluorescence trace < 600 RLU: C[C@H](CCC(=O)NCC(=O)O)[C@H]1CC[C@H]2[C@@H]3[C@H](O)C[C@@H]4C[C@H](O)CC[C@]4(C)[C@H]3C[C@H](O)[C@]12C [Glycocholic Acid, glycocholic acid]
False

In plain terms, does C[C@H](CCC(=O)O)[C@H]1CC[C@H]2[C@@H]3[C@@H](O)C[C@@H]4C[C@H](O)CC[C@]4(C)[C@H]3CC[C@]12C [Ursodeoxycholic Acid, ursodeoxycholic acid] come in under 600 RLU for RLU, fluorescence trace?
True

---

Exercise: state measured RLU for each of the compounds provided.
- SYSTEM: human TAS2R1 (Homo sapiens, UniProt Q9NYW7)
- Construct: expressed in transfected cells; host or cells: HEK293T-Gα16gust44
- Sequence (Q9NYW7 whole entry): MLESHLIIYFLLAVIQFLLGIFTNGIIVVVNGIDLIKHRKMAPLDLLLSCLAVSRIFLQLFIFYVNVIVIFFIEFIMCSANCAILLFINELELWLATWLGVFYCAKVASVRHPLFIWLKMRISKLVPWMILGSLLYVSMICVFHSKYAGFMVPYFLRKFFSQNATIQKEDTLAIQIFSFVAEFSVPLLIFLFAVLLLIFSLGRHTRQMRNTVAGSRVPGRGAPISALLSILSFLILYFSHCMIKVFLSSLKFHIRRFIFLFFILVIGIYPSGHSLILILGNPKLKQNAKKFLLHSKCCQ
- EXPERIMENT_DESCRIPTION: Calcium imaging assay (FLIPR), HEK293T-Gα16gust44 cells transfected with human TAS2R1
- Assay type: cell-based
- CONDITION: Time 58.781 s
Form entry: value (RLU) — number only.

If you can, please state the reported RLU value of C[C@H](CCC(=O)NCCS(=O)(=O)O)[C@H]1CC[C@H]2[C@@H]3CC[C@@H]4C[C@H](O)CC[C@]4(C)[C@H]3CC[C@]12C .
693.048

# input compound: C[C@H](CCC(=O)NCCS(=O)(=O)O)[C@H]1CC[C@H]2[C@@H]3[C@H](O)C[C@@H]4C[C@H](O)CC[C@]4(C)[C@H]3C[C@H](O)[C@]12C ; wanted: its RLU
410.391

I have this compound here, C[C@H](CCC(=O)O)[C@H]1CC[C@H]2[C@@H]3CC[C@@H]4C[C@H](O)CC[C@]4(C)[C@H]3C[C@H](O)[C@]12C , and I need its recorded RLU.
385.269

# query: RLU of entry C[C@H](CCC(=O)NCC(=O)O)[C@H]1CC[C@H]2[C@@H]3[C@H](O)C[C@@H]4C[C@H](O)CC[C@]4(C)[C@H]3C[C@H](O)[C@]12C
617.139

---

- SYSTEM: human TAS2R1 (Homo sapiens, UniProt Q9NYW7)
- Construct: expressed in transfected cells; host or cells: HEK293T-Gα16gust44
- EXPERIMENT_DESCRIPTION: Calcium imaging assay (FLIPR), HEK293T-Gα16gust44 cells transfected with human TAS2R1
- Type: cell-based
- CONDITION: Time 86.781 s
I'd appreciate it if you could supply RLU values for the items below.
Numeric answer only, unit RLU assumed.

Write down the reported RLU of C[C@H](CCC(=O)NCC(=O)O)[C@H]1CC[C@H]2[C@@H]3[C@H](O)C[C@@H]4C[C@H](O)CC[C@]4(C)[C@H]3C[C@H](O)[C@]12C , test system: human TAS2R1 (Homo sapiens, UniProt Q9NYW7).
573.367

API: value(readout=RLU, system=human TAS2R1 (Homo sapiens, UniProt Q9NYW7)) for record C[C@H](CCC(=O)NCCS(=O)(=O)O)[C@H]1CC[C@H]2[C@@H]3CC[C@@H]4C[C@H](O)CC[C@]4(C)[C@H]3CC[C@]12C
717.016

Value wanted: RLU (human TAS2R1 (Homo sapiens, UniProt Q9NYW7)) of entry C[C@H](CCC(=O)O)[C@H]1CC[C@H]2[C@@H]3CC[C@@H]4C[C@H](O)CC[C@]4(C)[C@H]3C[C@H](O)[C@]12C
386.975

API: value(readout= RLU, system= human TAS2R1 (Homo sapiens, UniProt Q9NYW7), query= C[C@H](CCC(=O)NCCS(=O)(=O)O)[C@H]1CC[C@H]2[C@@H]3[C@H](O)C[C@@H]4C[C@H](O)CC[C@]4(C)[C@H]3C[C@H](O)[C@]12C )
438.62

---

- SYSTEM: human TAS2R4 (Homo sapiens, UniProt Q9NYW5)
- Construct: expressed in transfected cells; host or cells: HEK293T-Gα16gust44
- EXPERIMENT_DESCRIPTION: Calcium imaging assay (FLIPR), HEK293T-Gα16gust44 cells transfected with human TAS2R4; note: test concentration or dose not given here
- Format: cell-based
- CONDITION: Time (s) 155.547
Please provide measured RLU, fluorescence trace for the entries that follow.
Report field: quantity (unit follows the number).

Request - read-out RLU, fluorescence trace | tested on human TAS2R4 (Homo sapiens, UniProt Q9NYW5) | compound C[C@H](CCC(=O)NCCS(=O)(=O)O)[C@H]1CC[C@H]2[C@@H]3CC[C@@H]4C[C@H](O)CC[C@]4(C)[C@H]3CC[C@]12C
193.672 RLU

Record C[C@H](CCC(=O)O)[C@H]1CC[C@H]2[C@@H]3[C@@H](O)C[C@@H]4C[C@H](O)CC[C@]4(C)[C@H]3CC[C@]12C : what is its RLU, fluorescence trace with human TAS2R4 (Homo sapiens, UniProt Q9NYW5)?
182.53 RLU

What measured RLU, fluorescence trace is associated with C[C@H](CCC(=O)NCCS(=O)(=O)O)[C@H]1CC[C@H]2[C@@H]3[C@H](O)C[C@@H]4C[C@H](O)CC[C@]4(C)[C@H]3C[C@H](O)[C@]12C on human TAS2R4 (Homo sapiens, UniProt Q9NYW5)?
493.52 RLU
